Subject Of Test: T1, MBP-OsMS188 (Oryza sativa (rice; Nipponbare?), UniProt Q7XQN1 1-372)
T1 sequence: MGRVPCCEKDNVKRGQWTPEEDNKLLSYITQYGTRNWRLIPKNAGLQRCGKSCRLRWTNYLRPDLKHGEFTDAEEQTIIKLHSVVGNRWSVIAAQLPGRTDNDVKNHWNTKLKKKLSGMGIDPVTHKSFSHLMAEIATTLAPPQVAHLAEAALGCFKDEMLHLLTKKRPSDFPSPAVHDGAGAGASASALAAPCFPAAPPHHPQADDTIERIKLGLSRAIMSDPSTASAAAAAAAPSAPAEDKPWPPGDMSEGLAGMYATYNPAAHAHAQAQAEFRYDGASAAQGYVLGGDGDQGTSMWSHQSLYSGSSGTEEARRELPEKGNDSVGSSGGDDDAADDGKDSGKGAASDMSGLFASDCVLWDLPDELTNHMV
Assay Info: EMSA; unlabelled probe competes; LightShift Chemiluminescent EMSA Kit (Thermo); buffer, salt, pH and temperature not stated
Conditions: protein: recombinant; label: biotin; blunt
Assay Endpoint: binding result

DPW promoter probe (dsDNA) DNA 1: AGGGAACTGAATCTTTTGCATGAACCACTGCATTTCCAAGAAGTGCACGAGCTTTGCA DNA 2: TGCAAAGCTCGTGCACTTCTTGGAAATGCAGTGGTTCATGCAAAAGATTCAGTTCCCT | binds
CYP704B2 promoter probe (dsDNA) DNA 1: AATAGCCTATTCAGATGAAGTAGAATTCAGGTGAAGTAGAAACCAACTACTTTGGGTTC DNA 2: GAACCCAAAGTAGTTGGTTTCTACTTCACCTGAATTCTACTTCATCTGAATAGGCTATT | binds

Recorded values, source paper PMC7788135.
